test system: U2OS; assay: cell viability relative to DMSO; higher = less toxic; details: 72 h; 1 nM
observation.type: cell viability (%)
Your answer should be a plain number; it is taken to be in %.

Worked examples, 4 compounds total:
CO/N=C(\C(=O)N[C@@H]1C(=O)N2C(C(=O)O)=C(CSc3nc(C)c(CC(=O)O)s3)CS[C@H]12)c1csc(N)n1 :: 96.1
Cc1cc(C)nc(SCC(=O)Nc2ncc(Cc3cccc4ccccc34)s2)n1 :: 94.7
CC/C(=C(/c1ccc(/C=C/C(=O)O)cc1)c1ccc2[nH]ncc2c1)c1ccc(F)cc1Cl :: 101
CC(C)(COP(=O)(O)OP(=O)(O)OC[C@H]1O[C@@H](n2cnc3c(N)ncnc32)[C@H](O)[C@@H]1OP(=O)(O)O)[C@@H](O)C(=O)NCCC(=O)NCCS :: 96.9

Hey, U2OS data for Oc1cc(Cl)ccc1Oc1ccc(Cl)cc1Cl : cell viability came out at 98.7
